- Assay Overview: Viability qHTS for spleen associated tyrosine kinase inhibitor (SYKi) naive MV4-11 cells (AID 1963823); also: nearly all actives have a fitted effect of over 40% in size
- Conditions Used: MV4-11 AML viability, CellTiter-Glo luminescence, 72 h; series mostly up to 45 µM
Records with an inconclusive call do not appear. The source made the active and inactive calls. Calls follow the shape of the dose curve; as a rule, active = well fitted cell-killing curve with a large enough effect; inconclusive = small, poorly fitted or top-dose-only effect, or effect the other way; inactive = no such curve, though single readings can be large or run the other way.
The categories you may choose from are T for active, F for inactive

Worked examples follow.
[[record]]
compound = "CC(C)(CO)[C@@H](O)C(=O)NCCCO"
group_label = "F"

[[record]]
compound = "O=C1c2c(O)cc(O)cc2OC(c2ccc(O)c(O)c2)C1O (configuration not stated)"
group_label = "F"

[[record]]
compound = "COc1cc(C(=O)NC2CCN(C)CC2)ccc1Nc1ncc2c(n1)N(C1CCCC1)CCC(=O)N2C(C)C"
group_label = "T"

[[record]]
compound = "O=S(=O)(c1ccc(Cl)cc1)N1CCN(c2ccnc3cc(Cl)ccc23)CC1"
group_label = "T"

[[record]]
compound = "CN(C)c1ccc(C(=O)NCCCCCCC(=O)NO)cc1"
group_label = "T"


Attention now turns to another entry.
Query: Would you mind telling me which call this test gave C[C@@H]1O[C@@H](OC[C@H]2O[C@@H](Oc3c(-c4ccc(O)c(O)c4)oc4cc(O)cc(O)c4c3=O)[C@H](O)[C@@H](O)[C@@H]2O)[C@H](O)[C@H](O)[C@H]1O ?
Result: F
